The reported measurements were obtained from patent US12139508B2.

# Experiment Notes: Pharmacokinetic assay in Balb/c mice (plasma and brain tissue)
# Format: in vivo
# Assay Conditions: mouse, po; plasma, 5 mg/kg p.o., male Balb/c mice; read-out: Plasma concentration Cmax
What Cmax was measured for each of the following?
Value expressed in ng/mL; do not type the unit.

Exam item: I'd like to know its Cmax. The molecule in question is C[C@@]1(O)CC[C@H]2[C@H](CC[C@@H]3[C@@H]2CC[C@@]2(C)[C@H]3[C@@H]3C[C@@H]3[C@@H]2C(=O)Cn2ccc(C#N)n2)C1 [Example 3]
Marked response: 673

Exam item: Quick one: Cmax of C[C@@]1(O)CC[C@H]2[C@H](CC[C@@H]3[C@@H]2CC[C@]2(C)C(C(=O)Cn4cc(C#N)cn4)C[C@@H](C4CC4)[C@@H]32)C1 (some centres unmarked) [Example 71] ?
Marked response: 508

Exam item: // lookup Cmax for C[C@@]1(O)CC[C@H]2[C@H](CC[C@@H]3[C@@H]2CC[C@@]2(C)[C@H]3[C@H](C3CC3)C[C@@H]2C(=O)Cn2ccc(C#N)n2)C1 [Example 72]
Marked response: 1150

Exam item: What value of Cmax has been reported for the following molecule? C[C@@]1(O)CC[C@H]2[C@H](CC[C@@H]3[C@@H]2CC[C@@]2(C)[C@H]3[C@H](C3CC3)C[C@@H]2C(=O)Cn2nccn2)C1 [Example 73]
Marked response: 1300

Exam item: Cmax for C[C@@]1(O)CC[C@H]2[C@H](CC[C@@H]3[C@@H]2CC[C@@]2(C)[C@H]3[C@@H]3C[C@@H]3[C@@H]2C(=O)Cn2ncnn2)C1 [Example 9] ?
Marked response: 664
